Taken from PubChem BioAssay (NCI).

Listing: TGI of selected molecules
# System: SK-MEL-2 melanoma
# Experimental Protocol: NCI tumour cell line growth inhibition, 48 h
Value Type: TGI

> print(dat)
                                    molecule          tested.on  reported.result
 1  NNc1nc2ccccc2c(=O)n1NC(=O)C(=O)Nc1cccc(C(F)(F)F)c1  SK-MEL-2 melanoma         > 100 µM
 2   NC(=O)N/N=C/C(/C=N/NC(N)=O)[N+](=O)[O-]  SK-MEL-2 melanoma         > 100 µM
 3  O=[N+]([O-])c1ccc(N/N=C/c2c(O)ccc3ccccc23)nc1  SK-MEL-2 melanoma         > 100 µM
 4  O=C(NCCC(F)(F)C(F)(F)C(F)(F)C(F)(F)F)NC1OC(CO)C(O)C(O)C1O (configuration not stated)  SK-MEL-2 melanoma         > 100 µM
 5  CC/C=C\C[C@H](O)C/C=C1/C(=O)C=C[C@@H]1C/C=C\CCCC(=O)N(C)C  SK-MEL-2 melanoma          7.13 µM
 6        C/C(=N\NS(=O)(=O)c1ccccc1)c1ccccc1  SK-MEL-2 melanoma         > 100 µM
 7       Cn1ccn2c3nc4ccccc4nc3c(=O)c(C#N)c12  SK-MEL-2 melanoma         > 100 µM
 8         Cc1sc(C)c(Cc2c(C)sc(C)c2CCl)c1CCl  SK-MEL-2 melanoma         > 100 µM
 9  Cn1c(=O)c2c(nc3n(Cc4ccccc4)c(=O)c(NCCBr)cn23)n(C)c1=O  SK-MEL-2 melanoma          74.2 µM
10  COc1ccccc1C1SCC(=O)N1c1ccc(-c2ccc(-n3c(-c4ccccc4)nc4ccccc4c3=O)cc2)cc1 (configuration not stated)  SK-MEL-2 melanoma         > 100 µM
11         CN(C)c1ccc(/C=C2\N=C(NN)NC2=O)cc1  SK-MEL-2 melanoma         > 100 µM
12                COc1ccc(C(N)=O)cc1N=NN(C)C  SK-MEL-2 melanoma         > 100 µM
13       CN1CCCN(C)C1c1cc([N+](=O)[O-])ccc1O  SK-MEL-2 melanoma         > 100 µM
14  O=c1[nH]c(=O)n(C2OC(CO)C(O)C2O)c2c1CCCC2 (configuration not stated)  SK-MEL-2 melanoma         > 100 µM
15  COc1cc(C2SCC(=O)N2c2ccc(-n3c(-c4ccccc4)nc4ccccc4c3=O)cc2)ccc1O (configuration not stated)  SK-MEL-2 melanoma         > 100 µM
16  CN(C)CCCN1c2nc3ccccc3cc2Sc2cc3ccccc3nc21  SK-MEL-2 melanoma          2.84 µM
17   COc1cc(OC)c2c(O)c3c(cc2c1)CC(C)(C)CC3=O  SK-MEL-2 melanoma         > 100 µM
18  O=C(Nc1ccc(F)cc1)c1c(NC(=O)C(F)(F)F)sc2c1CCCCC2  SK-MEL-2 melanoma          6.75 µM
19  CC(=O)N1CCc2c([nH]c3ccc(Br)cc23)C1c1ccccc1 (configuration not stated)  SK-MEL-2 melanoma          > 10 µM
20  Cc1nc2sc(C(=O)Nc3cccc4ccccc34)c(N)c2cc1C(=O)c1ccccc1  SK-MEL-2 melanoma          > 50 µM
21  C/C(=N/NC(=S)Nc1ccccc1Cl)c1cccc(/C(C)=N\NC(=S)Nc2ccccc2Cl)n1  SK-MEL-2 melanoma         > 100 µM
22                O=C1CSc2nc3ccccc3n2/C=N\N1  SK-MEL-2 melanoma         > 100 µM
